target: Cyclin-dependent kinase 1/cyclin B (Homo sapiens, UniProt O95067+P06493+P14635+Q8WWL7)
Sequence (P06493 whole entry): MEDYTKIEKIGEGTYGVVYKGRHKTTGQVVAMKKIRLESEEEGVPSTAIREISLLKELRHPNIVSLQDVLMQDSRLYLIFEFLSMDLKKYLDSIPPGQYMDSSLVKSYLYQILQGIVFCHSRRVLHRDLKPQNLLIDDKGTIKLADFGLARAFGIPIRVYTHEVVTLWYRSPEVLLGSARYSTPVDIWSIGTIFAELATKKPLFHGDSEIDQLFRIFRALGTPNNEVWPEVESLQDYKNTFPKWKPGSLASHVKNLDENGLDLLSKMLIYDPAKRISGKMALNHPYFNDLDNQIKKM
Sequence (P14635 whole entry): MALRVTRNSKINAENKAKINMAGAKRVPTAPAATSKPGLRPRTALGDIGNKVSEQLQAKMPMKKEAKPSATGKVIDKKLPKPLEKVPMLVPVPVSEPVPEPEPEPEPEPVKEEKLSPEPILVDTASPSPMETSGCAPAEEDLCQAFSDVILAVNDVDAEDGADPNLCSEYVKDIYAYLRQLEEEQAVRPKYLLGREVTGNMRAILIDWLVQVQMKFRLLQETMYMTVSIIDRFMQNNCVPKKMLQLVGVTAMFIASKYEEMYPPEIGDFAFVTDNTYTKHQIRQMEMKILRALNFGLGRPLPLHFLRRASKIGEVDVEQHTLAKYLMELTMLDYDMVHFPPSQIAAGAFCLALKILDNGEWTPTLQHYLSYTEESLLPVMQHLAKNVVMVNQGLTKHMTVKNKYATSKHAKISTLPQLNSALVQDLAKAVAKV
Sequence (Q8WWL7 whole entry): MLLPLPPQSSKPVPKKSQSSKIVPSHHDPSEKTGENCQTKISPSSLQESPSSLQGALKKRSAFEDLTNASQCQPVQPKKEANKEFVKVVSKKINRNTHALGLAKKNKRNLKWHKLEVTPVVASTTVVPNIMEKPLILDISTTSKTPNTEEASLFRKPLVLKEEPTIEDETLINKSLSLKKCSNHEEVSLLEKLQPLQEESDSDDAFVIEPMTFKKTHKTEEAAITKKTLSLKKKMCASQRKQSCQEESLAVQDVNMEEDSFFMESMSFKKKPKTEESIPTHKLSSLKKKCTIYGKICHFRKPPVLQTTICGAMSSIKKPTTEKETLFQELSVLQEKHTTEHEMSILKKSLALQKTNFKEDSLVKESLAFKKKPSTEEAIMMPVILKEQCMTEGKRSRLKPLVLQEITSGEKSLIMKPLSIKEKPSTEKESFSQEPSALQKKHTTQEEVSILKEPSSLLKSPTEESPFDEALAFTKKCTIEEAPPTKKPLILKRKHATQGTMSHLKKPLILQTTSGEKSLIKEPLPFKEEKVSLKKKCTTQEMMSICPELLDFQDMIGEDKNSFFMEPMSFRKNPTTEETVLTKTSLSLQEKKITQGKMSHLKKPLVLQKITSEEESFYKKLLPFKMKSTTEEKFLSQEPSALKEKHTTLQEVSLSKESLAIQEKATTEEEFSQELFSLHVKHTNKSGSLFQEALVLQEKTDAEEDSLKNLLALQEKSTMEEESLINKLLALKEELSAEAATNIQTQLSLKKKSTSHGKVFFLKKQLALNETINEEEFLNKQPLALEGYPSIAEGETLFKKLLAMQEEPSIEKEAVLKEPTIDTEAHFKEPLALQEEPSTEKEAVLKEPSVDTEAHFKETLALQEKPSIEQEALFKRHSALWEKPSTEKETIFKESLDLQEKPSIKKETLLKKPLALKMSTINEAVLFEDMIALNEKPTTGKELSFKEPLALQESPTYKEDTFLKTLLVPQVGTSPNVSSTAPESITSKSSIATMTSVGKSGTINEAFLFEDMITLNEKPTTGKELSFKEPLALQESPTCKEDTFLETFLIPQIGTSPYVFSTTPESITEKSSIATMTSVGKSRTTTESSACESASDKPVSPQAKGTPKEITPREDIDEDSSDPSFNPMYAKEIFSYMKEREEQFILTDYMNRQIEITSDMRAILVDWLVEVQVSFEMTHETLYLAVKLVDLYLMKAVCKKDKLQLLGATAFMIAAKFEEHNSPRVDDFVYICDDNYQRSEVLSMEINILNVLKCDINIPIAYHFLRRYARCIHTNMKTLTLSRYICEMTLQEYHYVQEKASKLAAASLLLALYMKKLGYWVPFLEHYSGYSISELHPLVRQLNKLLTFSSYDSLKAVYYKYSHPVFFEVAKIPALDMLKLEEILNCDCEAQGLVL
Sequence (O95067 whole entry): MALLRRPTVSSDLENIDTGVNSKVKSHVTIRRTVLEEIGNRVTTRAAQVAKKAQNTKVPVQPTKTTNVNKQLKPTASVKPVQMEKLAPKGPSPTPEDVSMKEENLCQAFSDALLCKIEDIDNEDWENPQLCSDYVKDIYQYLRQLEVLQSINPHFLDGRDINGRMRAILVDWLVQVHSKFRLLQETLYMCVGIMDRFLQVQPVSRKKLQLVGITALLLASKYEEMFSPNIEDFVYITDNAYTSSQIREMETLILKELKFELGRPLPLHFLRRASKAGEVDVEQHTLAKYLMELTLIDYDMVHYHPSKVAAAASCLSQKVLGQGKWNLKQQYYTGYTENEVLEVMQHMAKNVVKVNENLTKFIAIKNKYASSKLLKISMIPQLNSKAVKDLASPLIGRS
attribute-measured: log10 of IC50 (log10 of the value in µM)

>  <entry-smiles>
COc1ccc2c(c1)NC(=O)Cc1c-2[nH]c2ccc([N+](=O)[O-])cc12

>  <log10 of IC50>
0.00

$$$$
>  <entry-smiles>
O=C1Cc2c([nH]c3ccc([N+](=O)[O-])cc23)-c2sccc2N1

>  <log10 of IC50>
-1.10

$$$$
>  <entry-smiles>
O=C1Cc2c([nH]c3ccc(Cl)cc23)-c2cccnc2N1

>  <log10 of IC50>
1.36

$$$$
>  <entry-smiles>
CSC1=Nc2ccccc2-c2c(c3cc([N+](=O)[O-])ccc3n2C)C1

>  <log10 of IC50>
2.36

$$$$
>  <entry-smiles>
COc1ccc2[nH]c3c(c2c1)CC(=O)Nc1ncccc1-3

>  <log10 of IC50>
1.95

$$$$
>  <entry-smiles>
Cc1ccc2[nH]c3c(c2c1)CC(=O)Nc1ncccc1-3

>  <log10 of IC50>
2.30

$$$$
>  <entry-smiles>
N#Cc1ccc2[nH]c3c(c2c1)CC(=O)Nc1ccsc1-3

>  <log10 of IC50>
-1.12

$$$$
>  <entry-smiles>
SC1=Nc2ccccc2-c2cc(-c3ccccn3)cc(-c3cccs3)c2C1

>  <log10 of IC50>
1.52

$$$$
>  <entry-smiles>
O=C1Cc2c([nH]c3ccc(C(F)(F)F)cc23)-c2cccnc2N1

>  <log10 of IC50>
0.78

$$$$
>  <entry-smiles>
O=[N+]([O-])c1ccc2[nH]c3c(c2c1)CC(=S)Nc1ccccc1-3

>  <log10 of IC50>
0.11

$$$$

----------
Quick record of IC50 values for Cyclin-dependent kinase 5/CDK5 activator 1 (Homo sapiens).

>  <entry-smiles>
Cc1ccc2[nH]c3c(c2c1)CC(=O)Nc1ncccc1-3

>  <IC50 / µM>
430

$$$$
>  <entry-smiles>
CC(=O)Cc1ccc2c(c1)-c1[nH]c3ccc(C(F)(F)F)cc3c1CC(=O)N2

>  <IC50 / µM>
0.42

$$$$
>  <entry-smiles>
Cc1ccc2[nH]c3c(c2c1)CC(=O)Nc1ccsc1-3

>  <IC50 / µM>
40

$$$$
>  <entry-smiles>
O=C1Cc2c([nH]c3ccc([N+](=O)[O-])cc23)-c2sccc2N1

>  <IC50 / µM>
0.1

$$$$
>  <entry-smiles>
O=C1Cc2c([nH]c3ccc(Cl)cc23)-c2cccnc2N1

>  <IC50 / µM>
42

$$$$
>  <entry-smiles>
COc1ccc2[nH]c3c(c2c1)CC(=O)Nc1ncccc1-3

>  <IC50 / µM>
420

$$$$
>  <entry-smiles>
O=C1Cc2c([nH]c3ccc(Cl)cc23)-c2sccc2N1

>  <IC50 / µM>
5

$$$$
>  <entry-smiles>
COc1ccc2c(c1)NC(=O)Cc1c-2[nH]c2ccc([N+](=O)[O-])cc12

>  <IC50 / µM>
0.63

$$$$
>  <entry-smiles>
O=C1Cc2c([nH]c3ccc(C(F)(F)F)cc23)-c2cccnc2N1

>  <IC50 / µM>
13

$$$$
>  <entry-smiles>
O=[N+]([O-])c1ccc2[nH]c3c(c2c1)CC(=S)Nc1ccccc1-3

>  <IC50 / µM>
1.7

$$$$
>  <entry-smiles>
O=C1Cc2c([nH]c3ccc(Br)cc23)-c2sccc2N1

>  <IC50 / µM>
4

$$$$
>  <entry-smiles>
CSC1=Nc2ccccc2-c2c(c3cc([N+](=O)[O-])ccc3n2C)C1

>  <IC50 / µM>
849

$$$$
>  <entry-smiles>
O=C1Cc2c([nH]c3ncccc23)-c2ccccc2N1

>  <IC50 / µM>
3.3

$$$$

Recorded values, source ChEMBL document CHEMBL1148295.
